Quick reference: protein stability index of the listed items.
- experiment.description: protein stability index of a GFP-peptide fusion (GPS, HEK-293T) (PSI 1-6); higher = more stable;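 also: 24-mer peptide tiles fused after GFP, lentivirally expressed, FACS-sorted into six equal bins by GFP/DsRed ratio, decoded by Illumina sequencing, PSI is the read-weighted mean bin number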
- experimental.conditions: treatment: MLN4924 1 uM, 8 h; c terminus: a fixed tail appended
Just the number, please.

Some solved cases for reference:
sequence.chain | measurement
SFCELHLKPHLEGAAFRDHQLLEP [TRIM29] | 2.93
HPVTIGGKIVGSLCAIAGVLTIAL [KCNA3] | 2.05
SPSRAPGLRQRASNKVQDSAPVET [HMOX1] | 5.22
LASPHTVAAVLEAVAQTAHLPADS [RSAD1] | 3.83
PLHVHEEEGILVAVGQDCYTRIWS [DCAF4] | 2.74
LTEDMYAQDSIELLTTSGIQFKKH [CNOT7] | 4.09
GASDNSIIMWDIGGRKGRTLLLQG [WDFY1] | 2.19
LYCSTPTRTAEPAESSVPPVTSIG [SLC35F2] | 4.08

Q: Recall and state the measured protein stability index for PLQLLREMRQALQALLKENRLLQE [CBY2] .
A: 3.4

Q: Recall and state the measured protein stability index for MREYKLVVLGSGGVGKSALTVQFV [RAP1B] .
A: 2.8

Q: Recall and state the measured protein stability index for PAQVHSSLSAGEKPGFLAPRDLPK [RASAL3] .
A: 4.77

Q: Recall and state the measured protein stability index for DFTTAAEDQPINLCDKLPPATALG [NOL4L] .
A: 4.78
